- Test system: 885724-159-R-J1-PDC complex spheroid viability
- test.protocol: Anticancer human tumor 885724-159-R-J1-PDC patient-derived pancreatic adenocarcinoma cell line growth inhibition [POLQ]
- condition.notes: second compound 0.0316 µM; first compound 0.1 µM; stronger effect = lower value
Could you please mark YES for values of viability, T/C below 90% and NO for values at or above it?

INSERT INTO assay_data (compound, assigned_label) VALUES
  ('COc1cc(C2c3cc4c(cc3C(OC3OC5COC(C)OC5C(O)C3O)C3COC(=O)C23)OCO4)cc(OC)c1O (stereo not given) + COC1C(OC(N)=O)C(O)C(Oc2ccc3c(O)c(NC(=O)c4ccc(O)c(CC=C(C)C)c4)c(=O)oc3c2C)OC1(C)C', 'YES'),
  ('C=CCn1c(=O)c2cnc(Nc3ccc(N4CCN(C)CC4)cc3)nc2n1-c1cccc(C(C)(C)O)n1 + COC1C(OC(N)=O)C(O)C(Oc2ccc3c(O)c(NC(=O)c4ccc(O)c(CC=C(C)C)c4)c(=O)oc3c2C)OC1(C)C', 'YES'),
  ('CNCc1ccc(-c2[nH]c3cc(F)cc4c3c2CCNC4=O)cc1 + Nc1ccc(C#CCN(C(=O)Cc2ncc(C(F)(F)F)cc2C(F)(F)F)c2ccc(F)cc2)nn1', 'NO');

Q: Hello, is viability, T/C of the following compound strictly smaller than 90%? CCc1cc2c(N3CCc4c(cc(Cn5ccnc5)cc4-c4cn(C)nc4C(F)(F)F)C3=O)ccnc2c(OC)n1 + Nc1ccc(C#CCN(C(=O)Cc2ncc(C(F)(F)F)cc2C(F)(F)F)c2ccc(F)cc2)nn1
Result: YES

Q: Say whether its viability, T/C is strictly beneath 90%. Entry: CC1COCCN1c1cc(C2(O)CC3CCC(C2)O3)c2cnn(-c3ccn[nH]3)c2n1 (stereo not given) + Cc1cccc(N(C)C(=O)C2C(O)CCN2c2nc(C)cc(C(F)(F)F)c2C#N)c1
Result: YES

###

- System: 885724-159-R-J1-PDC complex spheroid viability
- test.protocol: Anticancer human tumor 885724-159-R-J1-PDC cell line growth inhibition [POLQ];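 further: spheroids exposed to compounds for 7 days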
- condition.notes: second compound 0.0316 µM; first compound 0.1 µM; stronger effect = lower value
endpoint.name: viability, T/C (%)
# output: bare number, implied unit %

Solved cases below.
INSERT INTO measurements (molecule, target_or_test_system, endpoint_name, reported_measurement) VALUES
  ('C=CC(=O)N1CCN(c2nc(=O)n(-c3c(C)ccnc3C(C)C)c3nc(-c4c(O)cccc4F)c(F)cc23)C(C)C1 (stereo unspecified) + COC1C(OC(N)=O)C(O)C(Oc2ccc3c(O)c(NC(=O)c4ccc(O)c(CC=C(C)C)c4)c(=O)oc3c2C)OC1(C)C', '885724-159-R-J1-PDC complex spheroid viability', 'viability, T/C', 97.9),
  ('CC1COCCN1c1cc(C2(O)CC3CCC(C2)O3)c2cnn(-c3ccn[nH]3)c2n1 (stereo unspecified) + Nc1ccc(C#CCN(C(=O)Cc2ncc(C(F)(F)F)cc2C(F)(F)F)c2ccc(F)cc2)nn1', '885724-159-R-J1-PDC complex spheroid viability', 'viability, T/C', 54.7),
  ('CCc1cc2c(N3CCc4c(cc(Cn5ccnc5)cc4-c4cn(C)nc4C(F)(F)F)C3=O)cc(C)nc2c(OC)n1 + Nc1ccc(C#CCN(C(=O)Cc2ncc(C(F)(F)F)cc2C(F)(F)F)c2ccc(F)cc2)nn1', '885724-159-R-J1-PDC complex spheroid viability', 'viability, T/C', 82.4);

Q: Can you share its viability, T/C? I mean this molecule: Nc1ccn(C2OC(CO)C(O)C2(F)F)c(=O)n1 (stereo unspecified) + Nc1ccc(C#CCN(C(=O)Cc2ncc(C(F)(F)F)cc2C(F)(F)F)c2ccc(F)cc2)nn1
Result: 57.2

Q: What viability, T/C value was documented for this molecule, C#Cc1c(F)ccc2cc(O)cc(-c3ncc4c(N5CC6CCC(C5)N6)nc(OCC56CCCN5CC(F)C6)nc4c3F)c12 (stereo unspecified) + COC1C(OC(N)=O)C(O)C(Oc2ccc3c(O)c(NC(=O)c4ccc(O)c(CC=C(C)C)c4)c(=O)oc3c2C)OC1(C)C ?
Result: 101

Q: Which viability, T/C reading was recorded for the molecule CC1COCCN1c1cc(C2(S(C)(=N)=O)CC2)nc(-c2ccnc3[nH]ccc23)n1 (stereo unspecified) + Nc1ccc(C#CCN(C(=O)Cc2ncc(C(F)(F)F)cc2C(F)(F)F)c2ccc(F)cc2)nn1 ?
Result: 89.6

Q: Form field: reported viability, T/C of CC1COCCN1c1cc(C2(S(C)(=N)=O)CC2)nc(-c2ccnc3[nH]ccc23)n1 (stereo unspecified) + COC1C(OC(N)=O)C(O)C(Oc2ccc3c(O)c(NC(=O)c4ccc(O)c(CC=C(C)C)c4)c(=O)oc3c2C)OC1(C)C
Result: 96.8

Q: # query: viability, T/C of entry CCc1cc2c(N3CCc4c(cc(Cn5ccnc5)cc4-c4cn(C)nc4C(F)(F)F)C3=O)ccnc2c(OC)n1 + Cc1cccc(N(C)C(=O)C2C(O)CCN2c2nc(C)cc(C(F)(F)F)c2C#N)c1
Result: 82.9

Q: Name the recorded viability, T/C for COc1cccc(OCCCN)c1-c1cc(Nc2cnc(C#N)cn2)n[nH]1 + Cc1cccc(N(C)C(=O)C2C(O)CCN2c2nc(C)cc(C(F)(F)F)c2C#N)c1 .
Result: 44.4

Q: Which viability, T/C value is on record for CC(C)n1c(=O)n(C)c2cnc3cc(F)c(-c4ccc(OCCCN5CCCCC5)nc4)cc3c21 + COC1C(OC(N)=O)C(O)C(Oc2ccc3c(O)c(NC(=O)c4ccc(O)c(CC=C(C)C)c4)c(=O)oc3c2C)OC1(C)C ?
Result: 89.6

Q: Which viability, T/C is listed for O=c1[nH]cc(F)c(=O)[nH]1 + COC1C(OC(N)=O)C(O)C(Oc2ccc3c(O)c(NC(=O)c4ccc(O)c(CC=C(C)C)c4)c(=O)oc3c2C)OC1(C)C ?
Result: 104

###

- System: 885724-159-R-J1-PDC complex spheroid viability
- test.protocol: Anticancer human tumor 885724-159-R-J1-PDC cell line growth inhibition [POLQ];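 further: spheroids exposed to compounds for 7 days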
- condition.notes: second compound 10 µM; first compound 0.0316 µM; stronger effect = lower value
Form field: viability, T/C (one value per entry).
Return type: number; implicit unit %.

Examples with their reported viability, T/C follow.
INSERT INTO measurements (molecule, reported_measurement) VALUES
  ('C=CCn1c(=O)c2cnc(Nc3ccc(N4CCN(C)CC4)cc3)nc2n1-c1cccc(C(C)(C)O)n1 + COC1C(OC(N)=O)C(O)C(Oc2ccc3c(O)c(NC(=O)c4ccc(O)c(CC=C(C)C)c4)c(=O)oc3c2C)OC1(C)C', 97.2),
  ('O=c1[nH]cc(F)c(=O)[nH]1 + Nc1ccc(C#CCN(C(=O)Cc2ncc(C(F)(F)F)cc2C(F)(F)F)c2ccc(F)cc2)nn1', 105),
  ('COc1cc(C2c3cc4c(cc3C(OC3OC5COC(C)OC5C(O)C3O)C3COC(=O)C23)OCO4)cc(OC)c1O (stereo not given) + Nc1ccc(C#CCN(C(=O)Cc2ncc(C(F)(F)F)cc2C(F)(F)F)c2ccc(F)cc2)nn1', 95.1),
  ('CC1COCCN1c1cc(-c2ccnn2C)c2ccnc(-c3ccn[nH]3)c2n1 (stereo not given) + COC1C(OC(N)=O)C(O)C(Oc2ccc3c(O)c(NC(=O)c4ccc(O)c(CC=C(C)C)c4)c(=O)oc3c2C)OC1(C)C', 77.1);

Q: Name the recorded viability, T/C for CCc1cc2c(N3CCc4c(cc(Cn5ccnc5)cc4-c4cn(C)nc4C(F)(F)F)C3=O)cc(C)nc2c(OC)n1 + COC1C(OC(N)=O)C(O)C(Oc2ccc3c(O)c(NC(=O)c4ccc(O)c(CC=C(C)C)c4)c(=O)oc3c2C)OC1(C)C .
Result: 78.4

###

- System: 885724-159-R-J1-PDC complex spheroid viability
- test.protocol: Anticancer human tumor 885724-159-R-J1-PDC cell line growth inhibition [POLQ];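 further: spheroids exposed to compounds for 7 days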
- condition.notes: second compound 0.0316 µM; first compound 0.316 µM; stronger effect = lower value
- Experimental: Multicellular complex tumor spheroid response to Polymerase (POL) inhibitors (novobiocin, ART-558, RP6685) in combination with a variety of drugs and investigational agents in selected tumor cell lines The POL inhibitors (novobiocin, ART-558, and RP6685) were evaluated both individually and in combination with standard of care and investigational anticancer small molecules within a complex spheroid model of solid tumors. . […]
Criterion: viability, T/C strictly less than 80%. Met: condition met. Not met: condition not met.

Illustrative cases are given below, each with its answer.
INSERT INTO assay_data (compound, assigned_label) VALUES
  ('C=CCn1c(=O)c2cnc(Nc3ccc(N4CCN(C)CC4)cc3)nc2n1-c1cccc(C(C)(C)O)n1 + COC1C(OC(N)=O)C(O)C(Oc2ccc3c(O)c(NC(=O)c4ccc(O)c(CC=C(C)C)c4)c(=O)oc3c2C)OC1(C)C', 'condition met'),
  ('CC1COCCN1c1cc(-c2ccnn2C)c2ccnc(-c3ccn[nH]3)c2n1 (configuration not stated) + Nc1ccc(C#CCN(C(=O)Cc2ncc(C(F)(F)F)cc2C(F)(F)F)c2ccc(F)cc2)nn1', 'condition met'),
  ('O=C(c1cc(Cc2n[nH]c(=O)c3ccccc23)ccc1F)N1CCN(C(=O)C2CC2)CC1 + Nc1ccc(C#CCN(C(=O)Cc2ncc(C(F)(F)F)cc2C(F)(F)F)c2ccc(F)cc2)nn1', 'condition not met');

Q: Say whether its viability, T/C is strictly beneath 80%. Entry: CNCc1ccc(-c2[nH]c3cc(F)cc4c3c2CCNC4=O)cc1 + COC1C(OC(N)=O)C(O)C(Oc2ccc3c(O)c(NC(=O)c4ccc(O)c(CC=C(C)C)c4)c(=O)oc3c2C)OC1(C)C
Result: condition not met

Q: Quick check: does COc1ccc([C@@H](O)c2cc(-c3ncnc4cc(N5CCOCC5)ccc34)c(F)cc2Cl)nn1 + Nc1ccc(C#CCN(C(=O)Cc2ncc(C(F)(F)F)cc2C(F)(F)F)c2ccc(F)cc2)nn1 have viability, T/C under 80%?
Result: condition met

Q: Please state whether viability, T/C is below 80% for COc1cccc2c1C(=O)c1c(O)c3c(c(O)c1C2=O)CC(O)(C(=O)CO)CC3OC1CC(N)C(O)C(C)O1 (configuration not stated) + Nc1ccc(C#CCN(C(=O)Cc2ncc(C(F)(F)F)cc2C(F)(F)F)c2ccc(F)cc2)nn1
Result: condition met
